# NADPH fluorescence slope values compiled below
Biological target: Voltage-gated potassium channel subunit beta-2 (Rattus norvegicus) (UniProt P62483)
Sequence (P62483 whole entry, looked up): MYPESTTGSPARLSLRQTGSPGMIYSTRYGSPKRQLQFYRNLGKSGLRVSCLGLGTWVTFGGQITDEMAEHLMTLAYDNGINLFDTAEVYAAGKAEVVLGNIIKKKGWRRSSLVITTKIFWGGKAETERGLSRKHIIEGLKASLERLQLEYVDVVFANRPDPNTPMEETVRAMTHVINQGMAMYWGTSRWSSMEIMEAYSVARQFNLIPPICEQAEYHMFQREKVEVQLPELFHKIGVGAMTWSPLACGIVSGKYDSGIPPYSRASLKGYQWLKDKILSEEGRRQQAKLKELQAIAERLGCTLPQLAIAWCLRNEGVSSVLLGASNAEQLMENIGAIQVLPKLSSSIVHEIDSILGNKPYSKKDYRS
Assay: enhancers of rat Kvbeta2 NADPH turnover – biochemical, NADPH fluorescence, primary screen (AID 623);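 also: fluorescence intensity change per second fitted from 20 to 320 s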
Conditions: Recombinant KvBeta, NADPH fluorescence decrease slope, 10 min; at 10 µM; stronger effect = lower value
quantity_name: NADPH fluorescence slope

| compound | numeric_result |
| --- | --- |
| CCOC(=O)Cn1nnc(-c2ccc(SC)cc2)n1 | -6.5e-05 |
| Cc1ccc(Nc2nc(N)nc(CN3CCCCCC3)n2)cc1 | -2.5e-05 |
| O=C(c1ccc(-c2ccccc2)cc1)N1CCC(C(=O)N2CCCC2)CC1 | -5.3e-05 |
| O=C(OCCN1C(=O)c2ccccc2C1=O)c1ccc(S(=O)(=O)N2CCCCCC2)cc1 | -2.9e-05 |
| FC(F)(F)c1cc(-c2ccccc2)nc(N2CCCCC2)n1 | -3.3e-05 |
| CC(=O)N(C)C1(c2nnnn2CCOC(=O)Nc2ccc(Cl)cc2)CCCCC1 | -3.1e-05 |
| COc1ccc(C2=NO[C@@H]3C(=O)N(c4cccc(C)c4C)C(=O)[C@H]23)cc1OC | -4.9e-05 |
| CC1CN(c2ccc(Oc3ccccc3)cc2)c2nc3c(c(=O)n(CC(N)=O)c(=O)n3C)n2C1 (configuration not stated) | -6.5e-05 |
| Cc1ccc(-c2cc(C(=O)NCCN3CCOCC3)no2)cc1 | 8.4e-05 |
| COc1cccc(N2CCN(Cc3nc(N)nc(Nc4ccccc4)n3)CC2)c1 | -5.8e-06 |
| COC(=O)Nc1ccccc1C(=O)N1CCCCC1 | -8.5e-07 |
| Cn1cnc(S(=O)(=O)Nc2ccc(C(F)(F)F)cc2)c1 | -6.4e-05 |
| Cc1ccc(N2C(=O)c3ccccc3C2Nc2cccnc2)nc1 (configuration not stated) | 2e-05 |
| Cc1ccccc1NC(=O)NCCCN1CCN(C2CCCCC2)CC1 | 2.5e-06 |
| COc1cc2c(C)nc(C)c(C#N)c2cc1OC | -4.4e-05 |
| Cc1cc(NC(=O)c2ccccc2)ncc1NC(=O)c1ccco1 | 2.5e-05 |
| Cc1ccc(CCNC(=O)C2CCCN(S(=O)(=O)c3cnc[nH]3)C2)cc1 (configuration not stated) | -1.4e-06 |
| O=C(NCc1ccco1)c1csc(Nc2ccccc2Cl)n1 | -3.4e-05 |
| Cn1c(=N)n(CC(=O)O)c2ccccc21 | -2.3e-05 |
| CCN(CC)CCCN1C(=O)C(=O)/C(=C(/O)c2ccc3c(c2)OCO3)C1c1ccccn1 (configuration not stated) | -4.9e-05 |
| CCSCCNC(=O)c1cc(-n2cnnc2)ccc1Cl | -9.8e-06 |
| CCOC(=O)N1CCN(C(=O)CSc2nnc(Cc3ccccc3)o2)CC1 | -3.6e-05 |
| COc1ccccc1OCCCCNCCO | -3.7e-05 |
| CSC1=NCCN1C(=O)c1ccc(S(=O)(=O)N2CCCC2)cc1 | -1.6e-05 |
| COC(=O)CN1C(=O)C(O)(CC(=O)c2ccc(Cl)cc2)c2ccccc21 (configuration not stated) | 2.5e-05 |
| O=C(CSc1ncnc2c1cnn2-c1ccccc1)Nc1ccccc1 | -1.4e-05 |
| Cc1onc(-c2ccccc2Cl)c1C(=O)N1CCc2ccccc21 | 9.6e-06 |
| COC(=O)Cc1c(C)nc2nc[nH]n2c1=O | -4e-05 |
| Nn1c(SCC(=O)NC2CCCCC2)nnc1-c1ccc(Cl)cc1 | 6.9e-06 |
| COCCNC(=O)CCc1nc(-c2ccccc2)no1 | 2.6e-05 |
| CCN1C(=O)c2cccc3c(NC(=O)c4ccc5c(c4)OCCO5)ccc1c23 | -5.7e-06 |
| CCN(C(=O)c1cc(Cl)ccc1OC)c1ccccc1 | -4.1e-05 |
| O=c1c(-c2ccccc2)coc2c(CN3CCOCC3)c(O)ccc12 | 4.4e-06 |
| O=C(CN1C(=O)c2ccccc2C1=O)Nc1ccccc1C(=O)N1CCCC1 | -2.3e-05 |
| O=c1[nH]c2ccc(Br)cc2c(-c2ccccc2)c1N1CCOCC1 | 2.9e-05 |
| O=C(c1cnn2c(C(F)F)cc(C3CC3)nc12)N1CCOCC1 | 2.5e-06 |
| c1ccc(OCc2nc3ccccc3[nH]2)cc1 | -5.8e-05 |
| NC(=O)CCS(=O)(=O)CCN1CCCCC1 | 4.4e-05 |
| Cc1cccc(-n2nc3c(c2NC(=O)CCC2CCCCC2)CS(=O)C3)c1C (configuration not stated) | -2.6e-06 |
| COc1cc(C(=O)Nc2nc(-c3cccs3)cs2)cc(OC)c1OC | -6.5e-06 |
| Cc1cnc(C(=O)OCC(=O)Nc2ccc(Oc3ccccc3)cc2)cn1 | -8.3e-06 |
| CC(Oc1ccccc1)C(=O)NC1CC(C)(C)NC(C)(C)C1 (configuration not stated) | -3.5e-05 |
| CS(=O)(=O)N1CCc2cc(S(=O)(=O)Nc3ccc4oc5c(c4c3)CCCC5)ccc21 | 1.3e-05 |
| Cc1nc(CCNS(=O)(=O)c2cccs2)cs1 | 2.6e-05 |
| COc1ccc(C(=O)N2CCN(C(=O)c3ccco3)CC2)cc1OC | -3.4e-05 |
| N#CCc1c(C#N)c(N)nc(N2CCN(S(=O)(=O)c3ccccc3)CC2)c1C#N | -4.2e-05 |
| COc1ccc(-n2c(Cc3cccn3C)nnc2SCC(=O)Nc2ccccc2)cc1 | -2.9e-05 |
